Values were extracted from patent US6608086B2.

- Target under test: α1B Human Adrenergic Receptor (Homo sapiens)
- Construct: The entire coding region of α1B (1563 bp); expressed in transfected cells
- Sequence (P35368 1-520): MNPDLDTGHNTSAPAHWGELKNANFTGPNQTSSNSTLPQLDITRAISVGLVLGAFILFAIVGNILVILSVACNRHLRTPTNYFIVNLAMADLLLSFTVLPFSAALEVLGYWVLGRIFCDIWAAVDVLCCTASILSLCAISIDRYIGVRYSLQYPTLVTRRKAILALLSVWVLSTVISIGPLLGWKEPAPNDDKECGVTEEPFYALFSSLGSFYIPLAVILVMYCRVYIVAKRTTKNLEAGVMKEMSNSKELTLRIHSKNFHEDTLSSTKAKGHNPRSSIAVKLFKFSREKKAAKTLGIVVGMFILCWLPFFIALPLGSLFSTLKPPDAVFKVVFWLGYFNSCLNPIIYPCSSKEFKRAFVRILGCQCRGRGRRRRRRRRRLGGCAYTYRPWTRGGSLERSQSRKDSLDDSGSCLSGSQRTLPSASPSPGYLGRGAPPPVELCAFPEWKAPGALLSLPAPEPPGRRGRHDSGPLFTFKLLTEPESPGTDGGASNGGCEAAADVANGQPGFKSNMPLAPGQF
- Measurement notes: Radioligand binding, [3H]prazosin, cloned human α1B adrenergic receptor
- Test context: cloned human receptor, LM(tk-) cell membranes, mean, read-out: PKi alpha-1 1b (converted)
# maps each entry to its Ki
Please format your answer as a value with the unit trailing.

Worked examples, 3 compounds total:
- Compound: "CCC1=C(C(=O)NC)C(c2ccc([N+](=O)[O-])cc2)C(C(=O)NCCCN2CCC(C(=O)OC)(c3ccccc3)CC2)=C(COCCN=[N+]=[N-])N1 (centres unmarked)"
  Ki: "1480 nM"
- Compound: "CCNC(=O)C1=C(CC)NC(CC)=C(C(=O)NCCCN2CCC(C(=O)OCC)(c3ccccc3)CC2)C1c1ccc([N+](=O)[O-])cc1 (centres unmarked)"
  Ki: "1120 nM"
- Compound: "CCC1=C(C(N)=O)C(c2ccc([N+](=O)[O-])cc2)C(C(=O)NCCCN2CCC(C(=O)OC)(c3ccccc3)CC2)=C(CCCCN=[N+]=[N-])N1 (centres unmarked)"
  Ki: "575 nM"

Request: Entry CCOC(=O)C1(c2ccccc2)CCN(CCCNC(=O)C2=C(CC)NC(CC)=C(C(=O)NC)C2c2ccc([N+](=O)[O-])cc2)CC1 (centres unmarked) : reported Ki = ?
Response: 1070 nM

* * *

- Target under test: L-type calcium channel (Rattus norvegicus)
- Construct: membrane fragments of rat cardiac muscle; from tissue; host or cells: rat cardiac muscle membranes
- Sequence (P22002 whole entry, other chains not shown, the tested form may be a part): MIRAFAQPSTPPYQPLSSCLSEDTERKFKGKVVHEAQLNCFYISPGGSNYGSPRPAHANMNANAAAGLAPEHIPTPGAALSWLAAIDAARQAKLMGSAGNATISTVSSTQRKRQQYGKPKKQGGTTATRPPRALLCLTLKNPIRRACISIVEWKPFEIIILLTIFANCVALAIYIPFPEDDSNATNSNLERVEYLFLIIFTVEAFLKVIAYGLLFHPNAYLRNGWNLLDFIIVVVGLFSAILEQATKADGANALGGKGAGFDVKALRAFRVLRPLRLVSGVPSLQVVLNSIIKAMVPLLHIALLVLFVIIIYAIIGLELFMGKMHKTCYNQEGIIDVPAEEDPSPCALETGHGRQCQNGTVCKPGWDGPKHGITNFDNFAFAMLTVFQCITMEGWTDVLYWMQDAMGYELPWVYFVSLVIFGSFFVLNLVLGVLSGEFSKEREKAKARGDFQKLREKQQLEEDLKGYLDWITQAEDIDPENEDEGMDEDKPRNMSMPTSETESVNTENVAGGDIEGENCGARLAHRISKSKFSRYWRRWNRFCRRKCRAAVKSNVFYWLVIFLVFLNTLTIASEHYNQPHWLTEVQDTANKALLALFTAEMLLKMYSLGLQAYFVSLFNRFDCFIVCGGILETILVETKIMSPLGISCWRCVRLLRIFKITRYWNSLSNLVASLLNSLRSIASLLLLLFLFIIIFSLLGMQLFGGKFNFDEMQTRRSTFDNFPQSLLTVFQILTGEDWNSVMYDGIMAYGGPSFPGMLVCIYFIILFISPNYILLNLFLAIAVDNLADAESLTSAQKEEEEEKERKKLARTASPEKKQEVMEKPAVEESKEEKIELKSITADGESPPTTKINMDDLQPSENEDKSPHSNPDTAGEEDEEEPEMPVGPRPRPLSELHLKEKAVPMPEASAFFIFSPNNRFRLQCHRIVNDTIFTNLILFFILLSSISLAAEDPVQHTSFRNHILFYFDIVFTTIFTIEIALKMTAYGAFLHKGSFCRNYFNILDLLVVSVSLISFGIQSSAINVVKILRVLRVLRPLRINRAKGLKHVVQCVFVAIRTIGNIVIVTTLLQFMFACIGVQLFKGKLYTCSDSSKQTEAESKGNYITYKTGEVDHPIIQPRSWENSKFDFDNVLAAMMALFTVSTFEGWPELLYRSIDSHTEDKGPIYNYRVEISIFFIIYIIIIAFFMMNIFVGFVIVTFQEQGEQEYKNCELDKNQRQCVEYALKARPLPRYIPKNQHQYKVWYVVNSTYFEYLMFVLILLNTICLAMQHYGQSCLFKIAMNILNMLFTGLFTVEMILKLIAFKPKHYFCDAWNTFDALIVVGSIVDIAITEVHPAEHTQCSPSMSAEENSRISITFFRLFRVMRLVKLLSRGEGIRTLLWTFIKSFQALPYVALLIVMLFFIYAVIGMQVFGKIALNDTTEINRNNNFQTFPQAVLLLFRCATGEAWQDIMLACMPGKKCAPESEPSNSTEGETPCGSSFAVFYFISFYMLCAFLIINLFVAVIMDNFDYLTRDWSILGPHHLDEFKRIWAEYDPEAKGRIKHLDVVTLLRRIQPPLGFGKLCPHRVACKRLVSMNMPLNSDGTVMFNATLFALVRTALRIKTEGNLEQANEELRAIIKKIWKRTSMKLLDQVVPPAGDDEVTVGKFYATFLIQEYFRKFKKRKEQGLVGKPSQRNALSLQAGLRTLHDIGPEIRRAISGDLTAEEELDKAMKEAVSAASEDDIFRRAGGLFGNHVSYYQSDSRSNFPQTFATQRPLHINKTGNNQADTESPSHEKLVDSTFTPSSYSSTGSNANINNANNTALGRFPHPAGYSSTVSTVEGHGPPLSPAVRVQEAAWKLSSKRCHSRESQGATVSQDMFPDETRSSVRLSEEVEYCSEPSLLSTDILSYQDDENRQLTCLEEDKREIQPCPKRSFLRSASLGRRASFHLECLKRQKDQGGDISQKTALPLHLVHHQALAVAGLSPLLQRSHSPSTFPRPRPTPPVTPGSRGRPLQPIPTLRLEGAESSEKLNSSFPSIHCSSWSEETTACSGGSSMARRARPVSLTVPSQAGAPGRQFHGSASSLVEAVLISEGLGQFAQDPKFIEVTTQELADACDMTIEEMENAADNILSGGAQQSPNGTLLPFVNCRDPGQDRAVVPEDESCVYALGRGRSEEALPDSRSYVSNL
- Sequence (P54290 25-944 partner limits assumed, other chains not shown): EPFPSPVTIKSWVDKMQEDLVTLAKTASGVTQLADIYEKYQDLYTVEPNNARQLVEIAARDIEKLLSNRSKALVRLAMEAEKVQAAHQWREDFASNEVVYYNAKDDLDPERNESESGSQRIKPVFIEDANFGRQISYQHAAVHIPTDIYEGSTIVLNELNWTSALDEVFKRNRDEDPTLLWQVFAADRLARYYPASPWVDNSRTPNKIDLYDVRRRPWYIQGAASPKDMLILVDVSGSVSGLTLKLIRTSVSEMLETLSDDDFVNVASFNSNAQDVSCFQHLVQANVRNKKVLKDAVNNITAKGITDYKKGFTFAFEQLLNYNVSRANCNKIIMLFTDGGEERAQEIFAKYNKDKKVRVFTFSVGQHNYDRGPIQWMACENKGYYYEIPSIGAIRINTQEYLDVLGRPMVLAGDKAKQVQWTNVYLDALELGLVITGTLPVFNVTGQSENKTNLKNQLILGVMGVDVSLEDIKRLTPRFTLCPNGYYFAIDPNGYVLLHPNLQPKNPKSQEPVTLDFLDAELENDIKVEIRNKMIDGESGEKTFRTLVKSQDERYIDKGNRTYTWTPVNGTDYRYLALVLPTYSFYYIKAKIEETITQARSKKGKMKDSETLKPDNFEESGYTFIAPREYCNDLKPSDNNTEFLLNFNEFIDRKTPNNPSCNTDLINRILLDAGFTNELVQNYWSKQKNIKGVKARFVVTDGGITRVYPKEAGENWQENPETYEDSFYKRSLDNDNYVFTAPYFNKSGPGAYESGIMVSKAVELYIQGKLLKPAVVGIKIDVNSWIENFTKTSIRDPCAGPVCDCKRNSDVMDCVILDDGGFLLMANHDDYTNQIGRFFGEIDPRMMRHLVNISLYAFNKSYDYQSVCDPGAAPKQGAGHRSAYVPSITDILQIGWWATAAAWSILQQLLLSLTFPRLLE
- Sequence (P54290 945-1091 partner limits assumed, other chains not shown): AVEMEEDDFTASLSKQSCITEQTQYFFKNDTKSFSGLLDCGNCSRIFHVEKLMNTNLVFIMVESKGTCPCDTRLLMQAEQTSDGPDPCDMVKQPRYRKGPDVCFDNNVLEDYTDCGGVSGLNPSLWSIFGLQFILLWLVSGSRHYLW
- Measurement notes: Competition binding of [3H]nitrendipine to membrane fragments of rat cardiac muscle
- Test context: [3H]nitrendipine, rat cardiac muscle membrane fragments, L-type calcium channel; read-out: pKi Ca (converted)
Structures can show the parent of a compound that is named as a salt.
In this section we review reported Ki values for a set of compounds.
Express the result in µM but write the number alone.

Some compounds with recorded Ki:
- Compound: "CCC1=C(C(=O)NCCCN2CCC(c3ccccc3)(c3ccccc3)CC2)C(c2cccc(OC)c2)C(C(=O)NCCCN2CCC(c3ccccc3)(c3ccccc3)CC2)=C(CC)N1 [Example 112]"
  Value unit: "µM"
  Ki: 0.0575
- Compound: "COc1ccccc1N1CCN(CCCNC(=O)C2=C(C)NC(C)=C(C(N)=O)C2c2ccc([N+](=O)[O-])cc2)CC1 (stereo not drawn) [Example 124]"
  Value unit: "µM"
  Ki: 1000
- Compound: "CC1=C(C(=O)NCCCN2CCC(c3ccccc3)(c3ccccc3)CC2)C(c2ccc([N+](=O)[O-])cc2)C(C(=O)NC(C)C)=C(C)N1 (stereo not drawn) [Example 156]"
  Value unit: "µM"
  Ki: 75.9
- Compound: "CCC1=C(C(N)=O)C(c2ccc([N+](=O)[O-])cc2)C(C(=O)NCCCN2CCC(O)(c3ccccc3)CC2)=C(CC)N1 (stereo not drawn) [Example 100, hydrochloride hydrate]"
  Value unit: "µM"
  Ki: 1000
- Compound: "COc1ccc(C2(c3ccccc3)CCN(CCCNC(=O)C3=C(C)NC(C)=C(C(N)=O)C3c3ccc([N+](=O)[O-])cc3)CC2)cc1 (stereo not drawn) [Example 98, hydrochloride]"
  Value unit: "µM"
  Ki: 1000

// below: Ki requested for another compound
Request: For CCC1=C(C(N)=O)C(c2ccc([N+](=O)[O-])cc2)C(C(=O)NCCCN2CCC(c3ccccc3)(c3ccccc3)CC2)=C(COCCN)N1 (racemic) [(±)-144] , what is its reported Ki?
Response: 12.6

* * *

Items are presented alongside their recorded Ki.
- Target under test: α1A Human Adrenergic Receptor (Homo sapiens, UniProt P25100)
- Construct: The entire coding region of α1A (1719 bp); expressed in transfected cells
- Sequence (P25100 whole entry): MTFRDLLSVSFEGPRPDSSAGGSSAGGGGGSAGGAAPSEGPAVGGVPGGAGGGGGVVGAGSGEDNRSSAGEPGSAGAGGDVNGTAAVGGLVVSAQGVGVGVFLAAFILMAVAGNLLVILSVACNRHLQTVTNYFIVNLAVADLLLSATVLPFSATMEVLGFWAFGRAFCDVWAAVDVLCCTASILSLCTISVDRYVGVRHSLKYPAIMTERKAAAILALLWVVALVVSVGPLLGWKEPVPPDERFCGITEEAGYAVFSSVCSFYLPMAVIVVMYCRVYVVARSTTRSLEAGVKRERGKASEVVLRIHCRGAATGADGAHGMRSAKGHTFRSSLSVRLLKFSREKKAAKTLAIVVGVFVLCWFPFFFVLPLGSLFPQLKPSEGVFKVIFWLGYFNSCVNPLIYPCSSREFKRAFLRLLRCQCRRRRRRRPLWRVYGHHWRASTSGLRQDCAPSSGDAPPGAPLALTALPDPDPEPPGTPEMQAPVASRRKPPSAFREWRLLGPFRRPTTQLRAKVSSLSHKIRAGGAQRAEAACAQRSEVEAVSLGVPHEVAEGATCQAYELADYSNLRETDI
- Measurement notes: Radioligand binding, [3H]prazosin, cloned human α1A adrenergic receptor
- Test context: PKi alpha-1 1a, [3H]prazosin, cloned human receptor, LM(tk-) cell membranes; mean
// units = nM; emit number, no label

Sample answers from the record:
- Compound: "CC(=O)C1=C(C)NC(CCCCN)=C(C(=O)NCCCN2CCC(c3ccccc3)(c3ccccc3)CC2)C1c1ccc([N+](=O)[O-])cc1 (stereo not drawn)"
  Reported: 309
- Compound: "CCC1=C(C(=O)NC)C(c2ccc([N+](=O)[O-])cc2)C(C(=O)NCCCN2CCC(c3ccccc3)(c3ccccc3)CC2)=C(COCCN=[N+]=[N-])N1 (stereo not drawn)"
  Reported: 661
- Compound: "CCC1=C(C(=O)OCCC#N)C(c2ccc([N+](=O)[O-])cc2)C(C(=O)NCCCN2CCC(C#N)(c3ccccc3)CC2)=C(COC)N1 (stereo not drawn)"
  Reported: 2140
- Compound: "CC(=O)C1=C(C)NC(COCCN)=C(C(=O)NCCCN2CCC(c3ccccc3)(c3ccccc3)CC2)C1c1ccc([N+](=O)[O-])cc1 (stereo not drawn)"
  Reported: 380
- Compound: "CCC1=C(C(=O)O)C(c2ccc([N+](=O)[O-])cc2)C(C(=O)NCCCN2CCC(c3ccccc3)(c3ccccc3)CC2)=C(COCCN)N1 (stereo not drawn)"
  Reported: 2690

Request: API: value(readout=Ki, system=α1A Human Adrenergic Receptor (Homo sapiens, UniProt P25100)) for record CCC1=C(C(=O)O)C(c2ccc([N+](=O)[O-])cc2)C(C(=O)NCCCN2CCC(C#N)(c3ccccc3)CC2)=C(COC)N1 (stereo not drawn)
Response: 14100

Request: Also CC1=C(C(N)=O)C(c2ccc([N+](=O)[O-])cc2)C(C(=O)NCCCN2CCC(c3ccccc3)(c3ccccc3)CC2)=C(CCCCCN)N1 (stereo not drawn) ?
Response: 513

Request: Please do the same for CNC(=O)C1=C(C)NC(C)=C(C(=O)NCCCN2CCC(c3ccccc3)(c3ccccc3)CC2)C1c1ccc2c(c1)OCCO2 (stereo not drawn) as well.
Response: 776

Request: Similarly, CCC1=C(C(=O)NC)C(c2ccc([N+](=O)[O-])cc2)C(C(=O)NCCCN2CCC(c3ccccc3)(c3ccccc3)CC2)=C(CCCCOC)N1 (stereo not drawn) ?
Response: 741

Request: Also check CCC1=C(C(=O)NC)C(c2ccc([N+](=O)[O-])cc2)C(C(=O)NCCCN2CCC(c3ccccc3)(c3ccccc3)CC2)=C(CCCCN)N1 (stereo not drawn)
Response: 813

Request: Same again, this time with COc1ccc(C2(c3ccccc3)CCN(CCCNC(=O)C3=C(COCCN=[N+]=[N-])NC(C)=C(C(N)=O)C3c3ccc([N+](=O)[O-])cc3)CC2)cc1 (stereo not drawn)
Response: 741

Request: Now consider CCC1=C(C(N)=O)C(c2ccc([N+](=O)[O-])cc2)C(C(=O)NCCCN2CCC(c3ccccc3)(c3ccccc3)CC2)=C(CCCCN)N1 (stereo not drawn) .
Response: 1050

* * *

- Target under test: α2A receptor (Homo sapiens)
- Construct: host or cells: LM(tk-) cells, line L-α2A
- Sequence (P08913 1-465): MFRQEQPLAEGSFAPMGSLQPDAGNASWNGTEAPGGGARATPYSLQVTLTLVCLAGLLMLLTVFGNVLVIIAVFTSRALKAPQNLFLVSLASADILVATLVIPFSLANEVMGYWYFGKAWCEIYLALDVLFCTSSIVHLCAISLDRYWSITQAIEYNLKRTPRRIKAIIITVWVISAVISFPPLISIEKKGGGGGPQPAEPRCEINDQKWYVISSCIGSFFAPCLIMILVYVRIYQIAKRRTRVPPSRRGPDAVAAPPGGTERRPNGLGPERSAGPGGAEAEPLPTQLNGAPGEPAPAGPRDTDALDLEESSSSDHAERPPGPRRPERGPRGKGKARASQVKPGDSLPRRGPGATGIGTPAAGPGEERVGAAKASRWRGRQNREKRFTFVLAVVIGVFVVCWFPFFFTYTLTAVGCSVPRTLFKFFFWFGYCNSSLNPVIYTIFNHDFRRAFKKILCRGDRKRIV
- Measurement notes: Competition binding, [3H]rauwolscine, human α2A receptor
- Test context: [3H]rauwolscine, human α2A receptor, LM(tk−) cells
- Experimental: The protocols for these experiments are given below. α2 Human Adrenergic Receptors: To determine the potency of […], antagonists at the α2 receptors, LM(tk−) cell lines stably transfected with the genes encoding the α2A, α2B, and α2C receptors were used. The cell line expressing the α2A receptor is designated L-α2A, and was deposited on Nov. […] Equilibrium competition binding assay were performed using [3H]rauwolscine (0.5 nM), and nonspecific binding was determined by incubation with 10 μM phentolamine. […]
pKi alpha-2 2a overview
Quick one: just the number, no unit, thanks!

Use these answered entries as a reference point.
- Compound: "COC(=O)C1=C(C)NC2=C(C(=O)N(CCCN3CCC(c4ccccc4)(c4ccccc4)CC3)C2)C1c1ccc([N+](=O)[O-])cc1.Cl.O (stereo not shown)"
  Reported: 6.06
- Compound: "CCC1=C(C(=O)NC)C(c2ccc([N+](=O)[O-])cc2)C(C(=O)NCCCN2CCC(C#N)(c3ccccc3)CC2)=C(CC)N1 (stereo not shown)"
  Reported: 5.33
- Compound: "CCOC(=O)C1=C(CNCCCN2CCC(c3ccccc3)(c3ccccc3)CC2)NC(C)=C(C(=O)OC)C1c1ccc([N+](=O)[O-])cc1.Cl.O (stereo not shown)"
  Reported: 6.13
- Compound: "CCC1=C(C(N)=O)C(c2ccc([N+](=O)[O-])cc2)C(C(=O)NC2CCN(CCc3c[nH]c4ccccc34)CC2)=CN1CC (stereo not shown) [Example 123]"
  Reported: 6.03
- Compound: "CC(C)C1=C(C(N)=O)C(c2ccc([N+](=O)[O-])cc2)C(C(=O)NCCCN2CCC(c3ccccc3)(c3ccccc3)CC2)=C(C(C)C)N1 (stereo not shown)"
  Reported: 6.17
- Compound: "CCC1=C(C(N)=O)C(c2ccc([N+](=O)[O-])cc2)C(C(=O)NCCCN2CCC(O)(c3ccccc3)CC2)=CN1CC.Cl.O (stereo not shown)"
  Reported: 5.89

Now for another entry.
Request: Suppose we examine the compound CCC1=C(C(N)=O)C(c2ccc([N+](=O)[O-])cc2)C(C(=O)NC2CCN(CCc3c[nH]c4ccccc34)CC2)=CN1CC (stereo not shown) [Example 122] ; what pKi alpha-2 2a value has been reported?
Response: 6.38
